Value source: paper PMC7545097

Form field: ratio to parent (one value per entry).
B1: PBX1_(1-430), wild-type recombinant [human] / PREP1_(1-436), wild-type recombinant (TR-FIA) [not stated] (parent complex)
chain 1: MDEQPRLMHSHAGVGMAGHPGLSQHLQDGAGGTEGEGGRKQDIGDILQQIMTITDQSLDEAQARKHALNCHRMKPALFNVLCEIKEKTVLSIRGAQEEEPTDPQLMRLDNMLLAEGVAGPEKGGGSAAAAAAAAASGGAGSDNSVEHSDYRAKLSQIRQIYHTELEKYEQACNEFTTHVMNLLREQSRTRPISPKEIERMVSIIHRKFSSIQMQLKQSTCEAVMILRSRFLDARRKRRNFNKQATEILNEYFYSHLSNPYPSEEAKEELAKKCGITVSQVSNWFGNKRIRYKKNIGKFQEEANIYAAKTAVTATNVSAHGSQANSPSTPNSAGSSSSFNMSNSGDLFMSVQSLNGDSYQGAQVGANVQSQVDTLRHVISQTGGYSDGLAASQMYSPQGISANGGWQDATTPSSVTSPTEGPGSVHSDTSN
chain 2: MMATQTLSIDSYQDGQQMQVVTELKTEQDPNCSEPDAEGVSPPPVESQTPMDVDKQAIYRHPLFPLLALLFEKCEQSTQGSEGTTSASFDVDIENFVRKQEKEGKPFFCEDPETDNLMVKAIQVLRIHLLELEKVNELCKDFCSRYIACLKTKMNSETLLSGEPGSPYSPVQSQQIQSAITGTISPQGIVVPASALQQGNVAMATVAGGTVYQPVTVVTPQGQVVTQTLSPGTIRIQNSQLQLQLNQDLSILHQDDGSSKNKRGVLPKHATNVMRSWLFQHIGHPYPTEDEKKQIAAQTNLTLLQVNNWFINARRRILQPMLDSSCSETPKTKKKTAQNRPVQRFWPDSIASGVAQPPPSELTMSEGAVVTITTPVNMNVDSLQSLSSDGATLAVQQVMMAGQSEDESVDSTEEDAGALAPAHISGLVLENSDSLQ

Variants of: B1
method_summary: TR-FIA; parent: 1; read off a plot

Consider the following illustrative entries.
chain 1 I43A = ~1
chain 1 L105A, chain 1 L108A = ~0.62
chain 1 L77A, chain 1 I84A = ~0.46
chain 1 I43A, chain 1 I50A = ~0.84

# input Data request, read-out ratio to parent, for chain 1 I50A, chain 1 I53A
# output ~0.83

# input Param item = chain 1 L105A ; retrieve measured ratio to parent.
# output ~0.71

# input I would be grateful if you could share the reported ratio to parent for chain 1 L113A .
# output ~0.66

# input Consider the variant chain 1 I50A and give its measured ratio to parent.
# output ~0.62

# input Any idea what its ratio to parent is? The variant is chain 1 L47A
# output ~0.75

# input Give the measured ratio to parent of chain 1 I46A .
# output ~0.9

# input ratio to parent for chain 1 V80A, chain 1 L81A ?
# output ~0.39

# input What does the data say about its ratio to parent? Entry: chain 1 L77A
# output ~0.63

# input Quick one: ratio to parent of chain 1 I197A, chain 1 I204A ?
# output ~0.64

# input Any idea what ratio to parent was measured for chain 1 I43A, chain 1 I46A, chain 1 I50A ?
# output ~0.8

# input Recorded ratio to parent of chain 1 I43A, chain 1 I46A , please.
# output ~0.79
